// pKi lookup, one value per entry
target: WDR5Δ23 (WD repeat domain 5, residues 24–334) (human, UniProt P61964 24-334); assay: fluorescence polarisation
pKi: −log10 of the molar value.
Value type: pKi

> print(dat)
                                     binder  value.type  readout.value
1                   Ac-ARAEVH-NH2 [Ac-6mer]         pKi           7.05
2  Ac-RAEVHLRKS-NH2 [Ac-9mer (Ac-10mer without Ala1)]         pKi           5.20
3  Ac-ARAEVHLRKS-NH2 [Ac-10mer (Ac-ARAEVHLRKS-NH2)]         pKi           8.52
